methodSummary: Hepatotoxicity in Kunming mouse assessed as change in ALT level administered intraperitoneally for 14 days (reference value: 45.75 +/- 4.65 U)
Assay type: toxicity
setupConditions: in vivo, ip, 336 h, time 14 day
propertyMeasured: Activity (U/L)
Write the answer as a number in U/L, unit excluded.

Value of measured Activity for the entry Cc1[nH]c2ccccc2c1C1=C(F)C(=O)C(F)=C(N2CCOCC2)C1=O : 28.8

* * *

methodSummary: Hepatotoxicity in Kunming mouse assessed as change in AST level administered intraperitoneally for 14 days (reference value: 153.25 +/- 15.26 U)
Type: toxicity
setupConditions: in vivo, ip, 336 h, time 14 day
propertyMeasured: Activity (U/L)
Write the answer as a number in U/L, unit excluded.

Value of measured Activity for the entry Cc1[nH]c2ccccc2c1C1=C(F)C(=O)C(F)=C(N2CCOCC2)C1=O : 106
